- SYSTEM UNDER TEST: protein farnesyltransferase (Rattus norvegicus, UniProt Q02293+Q04631)
- Construct: Rat brain protein farnesyltransferase activity is measured; from tissue; host or cells: rat brain; purified according to Reiss et al., Cell 62:81-88 (1990), steps one through three
- METHOD: in vitro inhibition of protein farnesyltransferase (scintillation proximity assay, biotin-K Ras B fragment)
- Type: biochemical
- PARTICULARS: at 1 × 10^-5 M
Hi there, I'd appreciate the recorded inhibition at 10 µM for every entry that follows.
Numbers only, in %.

See these solved cases before continuing.
{"columns": ["MOLECULE", "SYSTEM UNDER TEST", "PROPERTY LABEL", "NUMERIC RESULT"],
 "data": [
  ["Cc1ccccc1-c1cc(CN(Cc2ccccc2)c2cccnc2)ccc1C(=O)N[C@@H](CCS(C)(=O)=O)C(=O)O", "protein farnesyltransferase (Rattus norvegicus, UniProt Q02293+Q04631)", "inhibition at 10 µM", 49],
  ["CSCC[C@H](NC(=O)c1ccc(CNCCCN2CCOCC2)cc1-c1ccccc1)C(=O)O", "protein farnesyltransferase (Rattus norvegicus, UniProt Q02293+Q04631)", "inhibition at 10 µM", 71],
  ["COc1ccc(C(=O)Nc2ccc(C(=O)N[C@@H](CCSC)C(=O)O)c(-c3ccccc3)c2)c(O)c1", "protein farnesyltransferase (Rattus norvegicus, UniProt Q02293+Q04631)", "inhibition at 10 µM", 46]
]}

Given item COc1cc(Cl)ccc1C(=O)Nc1ccc(C(=O)N[C@@H](CCSC)C(=O)O)c(-c2ccccc2)c1 , the value recorded as its inhibition at 10 µM is 55

----------
Hi there, I'd appreciate the recorded inhibition at 1 µM for every entry that follows.
- SYSTEM UNDER TEST: protein farnesyltransferase (Rattus norvegicus, UniProt Q02293+Q04631)
- Construct: Rat brain protein farnesyltransferase activity is measured; from tissue; host or cells: rat brain; purified according to Reiss et al., Cell 62:81-88 (1990), steps one through three
- METHOD: in vitro inhibition of protein farnesyltransferase (scintillation proximity assay, biotin-K Ras B fragment)
- Format: biochemical
- PARTICULARS: at 1 × 10^-6 M; read-out: % inhibition of farnesyltransferase
- Protocol: The ability of the compounds of the invention to inhibit protein farnesyltransferase or protein geranylgeranyltransferase can be measured according to the method of Moores, et al., J. Biol. Chem. 266: 14603 (1991) or the method of Vogt, et al., J. Biol. Chem. 270:660-664 (1995). […] In addition, in vitro inhibition of protein farnesyltransferase may be measured by the following procedure. […] The % inhibition of protein farnesyltransferase was determined for representative compounds of the invention.
Structures can show the parent of a compound that is named as a salt.
Write the quantity with the unit trailing the number.

{"columns": ["MOLECULE", "inhibition at 1 µM"],
 "data": [
  ["CSCC[C@H](NC(=O)c1ccc(CN(Cc2ccco2)C(C)C)cc1-c1ccccc1C)C(=O)O [Example 831, lithium salt]", "92%"]
]}

Report inhibition at 1 µM for each item below.
1. CSCC[C@H](NC(=O)c1ccc(CN(CCC2CCCCC2)C(=O)N(C)C)cc1-c1ccccc1C)C(=O)O
2. CSCC[C@H](NC(=O)c1ccc(CN(C(=O)OC(C)(C)C)C(CC2CCCCC2)CC2CCCCC2)cc1-c1ccccc1C)C(=O)O [Example 886, lithium salt]
3. CSCC[C@H](NC(=O)c1ccc(NCC(CO)(Cc2ccccc2)Cc2ccccc2)cc1-c1ccccc1C)C(=O)O [Example 475, sodium salt]
4. CSCC[C@H](NC(=O)c1ccc(CN(Cc2ccccc2)Cc2ccco2)cc1-c1ccccc1C)C(=O)O [Example 504, lithium salt]
5. CSCC[C@H](NC(=O)c1ccc(CN(CC23CC4CC(CC(C4)C2)C3)c2ccccc2)cc1-c1ccccc1C)C(=O)O
6. COC(=O)c1cscc1NCc1ccc(C(=O)N[C@@H](CCSC)C(=O)O)c(-c2ccccc2C)c1
7. CCOC(=O)c1ccc(NCc2ccc(C(=O)N[C@@H](CCSC)C(=O)O)c(-c3ccccc3)c2)cc1

output:
1. 94%
2. 35%
3. 21%
4. 90%
5. 84%
6. 87%
7. 58%
